# STUDY SYSTEM: human IDO1 (Homo sapiens)
# Sequence (P14902 whole entry): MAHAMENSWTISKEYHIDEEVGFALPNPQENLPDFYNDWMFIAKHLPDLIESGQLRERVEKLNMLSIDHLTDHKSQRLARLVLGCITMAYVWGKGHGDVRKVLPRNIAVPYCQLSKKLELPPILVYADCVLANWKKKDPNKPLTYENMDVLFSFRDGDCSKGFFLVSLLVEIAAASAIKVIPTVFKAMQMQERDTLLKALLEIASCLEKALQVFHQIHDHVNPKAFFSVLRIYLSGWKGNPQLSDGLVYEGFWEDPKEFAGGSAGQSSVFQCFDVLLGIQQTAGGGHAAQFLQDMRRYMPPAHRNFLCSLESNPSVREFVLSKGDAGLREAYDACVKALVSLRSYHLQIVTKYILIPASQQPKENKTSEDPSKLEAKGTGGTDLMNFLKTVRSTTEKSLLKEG
# METHOD: Human IDO-1 inhibitory activity in Hela cells (interferon-gamma stimulated)
# Type: cell-based
# Design: endogenous in cells; host or cells: HeLa cells stimulated with interferon-gamma
# TEST SETTINGS: 18 hours, unstimulated wells = 100% inhibition
So I've got a bunch of molecules here, and I need their IC50 values.

These recorded examples may help you get a feel for the data.
molecule="CCOc1cc(Nc2cc([C@H](COC)CC(=O)O)ccc2N(CC)C2CCOCC2)ccc1C#N (single isomer, unassigned)" result_type=IC50 result="< 50 nM"
molecule="CCN(c1ccc([C@H](COC)CC(=O)O)cc1Nc1ncc(Cl)cn1)C1CCOCC1 (single isomer, unassigned)" result_type=IC50 result="< 50 nM"

Kindly review the next molecule as well.
**Query** Which IC50 value is on record for CCN(c1ccc([C@H](COC)CC(=O)O)cc1Nc1ccc2nc(C)sc2c1)C1CCOCC1 (single isomer, unassigned) ?
**Result** < 50 nM

This collection of values is drawn from patent US10399933B2.
